- SYSTEM_TESTED: von Hippel-Lindau disease tumor suppressor/Histone-lysine N-methyltransferase, H3 lysine-79 specific (Homo sapiens, UniProt Q8TEK3+P40337)
- Sequence (P40337 whole entry, looked up): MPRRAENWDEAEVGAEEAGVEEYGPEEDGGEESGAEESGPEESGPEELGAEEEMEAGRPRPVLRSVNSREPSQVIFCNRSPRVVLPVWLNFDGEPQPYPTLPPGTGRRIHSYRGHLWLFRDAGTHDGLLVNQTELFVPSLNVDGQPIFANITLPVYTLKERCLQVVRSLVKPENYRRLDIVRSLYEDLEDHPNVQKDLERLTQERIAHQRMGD
- Sequence (Q8TEK3 whole entry, looked up): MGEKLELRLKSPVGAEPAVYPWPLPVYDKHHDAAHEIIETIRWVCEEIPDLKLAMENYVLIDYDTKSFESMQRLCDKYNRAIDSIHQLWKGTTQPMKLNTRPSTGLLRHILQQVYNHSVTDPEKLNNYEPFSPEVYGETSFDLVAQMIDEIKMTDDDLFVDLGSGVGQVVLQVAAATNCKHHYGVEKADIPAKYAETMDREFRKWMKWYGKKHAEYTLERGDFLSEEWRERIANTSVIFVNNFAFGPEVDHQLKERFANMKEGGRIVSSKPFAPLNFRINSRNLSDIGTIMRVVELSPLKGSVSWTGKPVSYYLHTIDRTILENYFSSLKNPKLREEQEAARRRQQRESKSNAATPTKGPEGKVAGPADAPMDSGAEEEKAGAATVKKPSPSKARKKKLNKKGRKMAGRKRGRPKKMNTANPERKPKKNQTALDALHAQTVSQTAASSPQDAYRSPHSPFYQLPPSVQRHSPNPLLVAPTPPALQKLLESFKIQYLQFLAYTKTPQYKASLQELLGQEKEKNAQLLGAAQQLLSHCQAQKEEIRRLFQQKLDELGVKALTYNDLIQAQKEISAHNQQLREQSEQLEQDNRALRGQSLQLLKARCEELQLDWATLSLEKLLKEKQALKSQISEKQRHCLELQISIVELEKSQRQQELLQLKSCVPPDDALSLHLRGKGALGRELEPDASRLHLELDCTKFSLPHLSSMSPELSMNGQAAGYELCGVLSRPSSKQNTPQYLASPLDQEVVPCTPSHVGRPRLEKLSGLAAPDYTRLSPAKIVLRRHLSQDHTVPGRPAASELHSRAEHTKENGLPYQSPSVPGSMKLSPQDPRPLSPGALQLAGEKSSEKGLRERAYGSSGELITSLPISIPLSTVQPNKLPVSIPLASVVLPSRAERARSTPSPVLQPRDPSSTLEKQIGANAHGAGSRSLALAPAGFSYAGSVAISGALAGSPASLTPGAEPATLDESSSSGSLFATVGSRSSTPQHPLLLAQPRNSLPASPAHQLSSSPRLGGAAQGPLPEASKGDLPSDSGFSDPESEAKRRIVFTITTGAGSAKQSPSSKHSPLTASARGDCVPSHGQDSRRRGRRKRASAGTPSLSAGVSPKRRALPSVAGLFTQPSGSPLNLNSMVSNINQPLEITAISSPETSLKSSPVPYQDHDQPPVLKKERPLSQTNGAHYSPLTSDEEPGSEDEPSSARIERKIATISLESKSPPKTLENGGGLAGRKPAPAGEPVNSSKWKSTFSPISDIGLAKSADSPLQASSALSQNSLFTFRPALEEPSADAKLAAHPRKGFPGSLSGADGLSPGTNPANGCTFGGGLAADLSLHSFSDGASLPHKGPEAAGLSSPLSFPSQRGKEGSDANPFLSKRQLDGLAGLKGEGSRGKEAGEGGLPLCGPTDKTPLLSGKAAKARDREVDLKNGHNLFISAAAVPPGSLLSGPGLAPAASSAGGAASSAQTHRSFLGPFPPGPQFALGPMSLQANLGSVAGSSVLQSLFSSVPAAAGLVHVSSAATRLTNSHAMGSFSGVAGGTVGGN
- TEST_PROTOCOL: PROTAC activity at VHL/DOTIL in mixed-lineage leukemia rearranged (MLL-r) human THP-1 cells assessed as induction of DOT1L degradation by measuring fold change in DOTIL protein level at 3 uM incubated for 24 hrs by western blot analysis relative to control
- Format: cell-based

{"columns": ["COMPOUND_STRUCTURE", "fold change (FC)"],
 "data": [
  ["Cc1ncsc1-c1ccc([C@H](CC(=O)NCCCCCCCNC(=O)COc2nc(N)nc(Nc3cc(S(N)(=O)=O)ccc3N[C@@H](c3cccc4c3OC(F)(F)O4)c3ncccc3Cl)n2)NC(=O)[C@@H]2C[C@@H](O)CN2C(=O)[C@@H](NC(=O)C2(F)CC2)C(C)(C)C)cc1", 0.33],
  ["Cc1ncsc1-c1ccc(CNC(=O)[C@@H]2C[C@@H](O)CN2C(=O)[C@@H](NC(=O)CCCCNC(=O)COc2nc(N)nc(Nc3cc(S(N)(=O)=O)ccc3N[C@@H](c3cccc4c3OC(F)(F)O4)c3ncccc3Cl)n2)C(C)(C)C)cc1", 1.17],
  ["Cc1ncsc1-c1ccc(CNC(=O)[C@@H]2C[C@@H](O)CN2C(=O)[C@@H](NC(=O)CCNC(=O)COc2nc(N)nc(Nc3cc(S(N)(=O)=O)ccc3N[C@@H](c3cccc4c3OC(F)(F)O4)c3ncccc3Cl)n2)C(C)(C)C)cc1", 0.95],
  ["Cc1ncsc1-c1ccc([C@H](CC(=O)NCCCCCCNC(=O)COc2nc(N)nc(Nc3cc(S(N)(=O)=O)ccc3N[C@@H](c3cccc4c3OC(F)(F)O4)c3ncccc3Cl)n2)NC(=O)[C@@H]2C[C@H](O)CN2C(=O)[C@@H](NC(=O)C2(F)CC2)C(C)(C)C)cc1", 1.05]
]}
